Recorded values, source patent US6906074B2.

Parameter melting point: see the listing below.

Worked set:
compound="O=C1CN(Cc2n[nH]c(=O)[nH]2)[C@@H](c2ccc(F)cc2)[C@@H](COCc2cc(C(F)(F)F)cc(C(F)(F)F)c2)N1 [Compound 32]" value="129 to 132 °C"
compound=O=C1CN(Cc2n[nH]c(=O)[nH]2)[C@H](c2ccccc2)[C@H](COCc2cc(C(F)(F)F)cc(C(F)(F)F)c2)N1 value="138 to 140 °C"
compound=CN(C)Cc1[nH]nnc1CN1CC(=O)N(C)[C@H](COCc2cc(C(F)(F)F)cc(C(F)(F)F)c2)[C@@H]1c1ccc(F)cc1.Cl.Cl value="142 to 145 °C"
compound=Cl.O=C1CN[C@@H](c2ccccc2)[C@@H](COCc2cc(C(F)(F)F)cc(C(F)(F)F)c2)N1 value="219 to 221 °C"

Query string: For the compound O=C1CN(Cc2n[nH]c(=O)[nH]2)[C@@H](c2ccc(F)cc2)[C@@H](COCc2cc(C(F)(F)F)cc(C(F)(F)F)c2)N1 [Compound 40] , report melting point.
Result string: 138 to 140 °C

Query string: For the compound "CN1C(=O)CN(Cc2n[nH]c(=O)[nH]2)[C@@H](c2ccc(F)cc2)[C@H]1COCc1cc(C(F)(F)F)cc(C(F)(F)F)c1" , report melting point.
Result string: 212 to 213 °C

Query string: For the compound "CN(C)Cc1[nH]nnc1CN1CC(=O)N[C@H](COCc2cc(C(F)(F)F)cc(C(F)(F)F)c2)[C@@H]1c1ccc(F)cc1.Cl.Cl" , report melting point.
Result string: 213 to 216 °C
